- assay_summary: Volume of distribution in rat
- Type: ADME
- test_context: in vivo
experimental_endpoint: Vd (L/kg)
Numbers only, in L/kg.

The cases that follow already have their Vd on record.
CC[C@H](C)N1C(=O)C(C)(C)c2cnc(Nc3ccc(CN4CC(C)OC(C)C4)cc3)nc21 (stereo partly specified)
14
CC(=O)N1CCC(N2C(=O)C(C)(C)c3cnc(Nc4ccccc4)nc32)CC1
1.1
CC1(C)C(=O)N(C2CCCCC2)c2nc(Nc3cccnc3)ncc21
2.8
CC[C@H](C)N1C(=O)C(C)(C)c2cnc(Nc3ccc(CN4CCC(=O)N(C)CC4)cc3)nc21
3
CC[C@H](C)N1C(=O)C(C)(C)c2cnc(Nc3ccc(CN4CCN(C)CC4)cc3)nc21
35

Data point: C[C@@H](c1ccc(F)cc1)N1C(=O)C(C)(C)c2cnc(Nc3cccnc3)nc21 ; Vd = 6.8
